The measured values listed here are drawn from ChEMBL document CHEMBL3400011.

target.or.test.system: Tyrosine-protein phosphatase non-receptor type 1 (Homo sapiens)
assay.summary: Inhibition of PTP1B (unknown origin) assessed as inhibition rate at 100 uM
Record Criterion met whenever inhibition is at 30% or higher; record Criterion not met when lower.

Please review the following examples before continuing.
* NC(=O)c1nccc2c1[nH]c1ccccc12 | Criterion not met
* CCC1NC(C(=O)c2ccccc2)Cc2c1[nH]c1ccccc21 (stereo not drawn) | Criterion not met
* CCc1c2[nH]c3ccccc3c2cc[n+]1[O-] | Criterion not met
* COC(=O)/C=C/C(=O)c1ncc(OC)c2c1[nH]c1c(OC)cccc12 | Criterion not met
* COc1cnc(C(O)CO)c2[nH]c3ccccc3c12 (stereo not drawn) | Criterion not met

Request: For this compound, is measured inhibition 30% or higher? `COc1c(O)c(=O)n2c3ccccc3c3ccnc1c32`
Response: Criterion met

Request: Textbook exercise: given the entry `Cc1nc(C(=O)O)cc2c1[nH]c1ccccc12` , state whether its inhibition is greater than or equal to 30%.
Response: Criterion not met

* * *

target.or.test.system: UniProt:P18031
Sequence (P18031 whole entry): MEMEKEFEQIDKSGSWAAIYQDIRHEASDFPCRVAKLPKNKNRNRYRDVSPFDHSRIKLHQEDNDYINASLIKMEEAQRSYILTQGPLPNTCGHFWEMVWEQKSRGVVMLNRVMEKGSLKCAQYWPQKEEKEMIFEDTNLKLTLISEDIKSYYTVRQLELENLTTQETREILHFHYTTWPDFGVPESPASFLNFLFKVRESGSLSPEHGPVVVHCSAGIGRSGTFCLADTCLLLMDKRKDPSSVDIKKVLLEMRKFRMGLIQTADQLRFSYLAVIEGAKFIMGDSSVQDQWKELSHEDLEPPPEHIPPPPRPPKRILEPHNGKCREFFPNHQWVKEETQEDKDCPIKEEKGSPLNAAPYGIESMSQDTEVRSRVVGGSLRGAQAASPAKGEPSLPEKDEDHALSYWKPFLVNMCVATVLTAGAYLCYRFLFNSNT
assay.summary: Inhibition of PTP1B (unknown origin) assessed as inhibition rate at 100 uM
Measured inhibition of individual entries
# output: bare number, implied unit %

Please review the following examples before continuing.
• CCc1nccc2c1[nH]c1ccccc12 = 30.2
• COc1c(O)c2nccc3c4ccccc4n(c1=O)c23 = 55.9
• O=c1ccc2nccc3c4c(O)cccc4n1c23 = 50.6
• CC1NC(C(=O)O)Cc2c1[nH]c1ccccc21 (stereo unspecified) = 21.3
• COc1cnc(C(=O)CC(CO)c2ncc(OC)c3c2[nH]c2ccccc23)c2[nH]c3ccccc3c12 (stereo unspecified) = 33

// next entry
Request: Fill blank: measured inhibition of the compound `COc1c(O)c2nccc3c4cc(O)ccc4n(c1=O)c23` is ____.
Response: 30.5
